Target: P2Y12 receptor (Homo sapiens)
Construct: expressed in transfected cells; host or cells: CHO cells (membrane preparation)
Sequence (Q9H244 whole entry): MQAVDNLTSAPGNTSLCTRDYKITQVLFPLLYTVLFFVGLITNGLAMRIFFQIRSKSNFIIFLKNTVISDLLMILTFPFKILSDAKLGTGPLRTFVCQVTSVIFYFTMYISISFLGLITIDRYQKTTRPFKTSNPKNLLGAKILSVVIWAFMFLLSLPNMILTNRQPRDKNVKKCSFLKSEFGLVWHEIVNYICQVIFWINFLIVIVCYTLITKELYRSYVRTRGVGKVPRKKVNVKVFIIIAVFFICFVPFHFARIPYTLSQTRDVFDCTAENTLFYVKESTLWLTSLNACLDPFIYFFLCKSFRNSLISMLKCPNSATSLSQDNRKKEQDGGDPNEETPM
Assay: Functional inhibition of 2-Me-S-ADP induced P2Y12 signalling (35S-GTPγS binding, cell membranes)
Format: biochemical
Conditions: 35S-GTPγS assay, membranes, EC80 concentration of 2-methyl-thio-adenosine diphosphate, 30° C. for 45 min; read-out: GTPγS (IC50 μM)
RECORDED_METRIC: log10 IC50 (log10 of the value in µM)
Plainly stated, the numbers are log10 of IC50 given in µM.

Example cases with answers are listed next.
CCOC(=O)c1cc(C#N)c(N2CCC(C(=O)NS(=O)(=O)Cc3ccc(C(C)(C)C)cc3)CC2)nc1CN1CCCCC1=O | -0.42
CCOC(=O)c1cc(C#N)c(N2CCC(C(=O)NS(=O)(=O)Cc3ccccc3)CC2)nc1CSCCNC(C)=O | -1.48
CCOC(=O)c1cc(Cl)c(N2CCC(C(=O)NS(=O)(=O)N(C)c3ccccc3)CC2)nc1CN1CCCC1=O | -1.21
CCOC(=O)c1cc(Br)c(N2CCC(C(=O)NS(=O)(=O)Cc3ccccc3)CC2)nc1CN1CCCC1=O | -1.51
CCOC(=O)c1cc(C#N)c(N2CCC(C(=O)NS(=O)(=O)Cc3ccc([Si](C)(C)C)cc3)CC2)nc1CN1CCCCC1=O | -0.03

Then this compound:
Please look up its log10 IC50: CCOC(=O)c1cc(C#N)c(N2CCC(C(=O)NS(=O)(=O)Cc3ccccc3)CC2)nc1COC(C)=O
-1.36
